Test: Tmax of aliskiren hemifumarate following 2 week oral dosing of aliskiren hemifumarate at 100 mg.Kg-1 level studied on day 14 in female Callithrix jacchus
Format: ADME, organism-based
Settings: marmoset, plasma
assayReadout: Tmax (h)
One number for each entry, in h.

Item under review: COCCCOc1cc(C[C@@H](C[C@H](N)[C@@H](O)C[C@H](C(=O)NCC(C)(C)C(N)=O)C(C)C)C(C)C)ccc1OC.COCCCOc1cc(C[C@@H](C[C@H](N)[C@@H](O)C[C@H](C(=O)NCC(C)(C)C(N)=O)C(C)C)C(C)C)ccc1OC.O=C(O)/C=C/C(=O)O [ALISKIREN FUMARATE] . Reported Tmax? 2

Numbers sourced from ChEMBL document CHEMBL3508693.
